Observed pIC50 for Human RSK2 (Homo sapiens (Human)), reported per entry below.
pIC50: −log10 of the molar value.
Readout Name: pIC50

[
  {
    "Input Smiles": "CC1(C)CNC(=O)c2cc3ccc(C(=O)Nc4nc5cc(Cl)ccc5[nH]4)nc3n2C1",
    "Value Reported": 7.26
  },
  {
    "Input Smiles": "O=C(Nc1cnc2ccccc2c1)c1ccc2cc3n(c2n1)CCCNC3=O",
    "Value Reported": 8.04
  },
  {
    "Input Smiles": "C[C@@H]1CNC(=O)c2cc3ccc(C(=O)Nc4cc(Cc5ccccc5)on4)nc3n21",
    "Value Reported": 8.41
  }
]

P = CC(C)c1cc(NC(=O)c2ccc3cc4n(c3n2)CC(C)(C)CNC4=O)no1
Q = Cn1cc(NC(=O)c2ccc3cc4n(c3n2)CCCNC4=O)nc1C(=O)NC1CCCC1
Compare reported pIC50 values for P and Q . Which is lower? Write down the label attached to your selection. P
(P: 6.90, Q: 8.80)

###

pIC50: −log10 of the molar value.
System: Human RSK2 (Homo sapiens (Human), UniProt P51812) | Read-out: pIC50
Sequence (P51812 whole entry): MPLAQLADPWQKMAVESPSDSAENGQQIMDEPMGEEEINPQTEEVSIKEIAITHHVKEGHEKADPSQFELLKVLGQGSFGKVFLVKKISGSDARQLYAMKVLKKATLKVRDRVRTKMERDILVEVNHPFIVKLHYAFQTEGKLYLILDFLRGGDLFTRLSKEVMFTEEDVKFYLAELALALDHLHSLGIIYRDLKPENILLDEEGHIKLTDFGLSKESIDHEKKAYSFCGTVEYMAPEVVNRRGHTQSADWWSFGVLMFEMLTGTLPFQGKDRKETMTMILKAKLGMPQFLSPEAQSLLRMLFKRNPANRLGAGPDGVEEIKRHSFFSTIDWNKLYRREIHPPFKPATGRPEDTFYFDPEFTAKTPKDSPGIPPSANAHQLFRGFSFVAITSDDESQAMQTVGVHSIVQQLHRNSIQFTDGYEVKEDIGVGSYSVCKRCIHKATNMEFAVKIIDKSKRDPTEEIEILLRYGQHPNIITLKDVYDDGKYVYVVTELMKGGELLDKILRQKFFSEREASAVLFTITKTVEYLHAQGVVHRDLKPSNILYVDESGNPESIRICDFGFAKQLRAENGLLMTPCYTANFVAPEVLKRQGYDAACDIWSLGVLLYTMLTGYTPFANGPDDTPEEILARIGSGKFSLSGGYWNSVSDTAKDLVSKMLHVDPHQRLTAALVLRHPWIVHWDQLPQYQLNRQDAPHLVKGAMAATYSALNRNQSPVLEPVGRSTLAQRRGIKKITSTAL
Readout Name: pIC50

[
  {
    "Compound": "CC1(C)CNC(=O)c2cc3ccc(C(=O)Nc4cnc5c(cnn5C5CCOCC5)c4)nc3n2C1 [Example 34]",
    "Target Under Test": "Human RSK2 (Homo sapiens (Human), UniProt P51812)",
    "Value Reported": 7.21
  },
  {
    "Compound": "CC(C)n1ncc2cc(NC(=O)c3ccc4nc5n(c4c3)CCCNC5=O)cnc21 [Example 11]",
    "Target Under Test": "Human RSK2 (Homo sapiens (Human), UniProt P51812)",
    "Value Reported": 6.06
  }
]

I = O=C(Nc1cccnc1)c1ccc2nc3n(c2c1)CCCNC3=O [Example 1]
II = CCn1c(NC(=O)c2ccc3cc4n(c3n2)[C@@H](C)[C@@H](C)NC4=O)nc2ccccc21 (relative stereo) [Example 73]
When the recorded pIC50 values are compared, which is smaller: that of I or that of II ? // output: label of the selected item I
(I: 5.25, II: 7.94)

###

Assay read-out pIC50; system under study: Human RSK2 (Homo sapiens (Human)).
pIC50: −log10 of the molar value.
Readout Name: pIC50

[
  {
    "Compound": "Cc1cc(NC(=O)c2ccc3cc4n(c3n2)[C@@H](C)[C@H](C)NC4=O)no1 (relative stereo)",
    "Target Under Test": "Human RSK2 (Homo sapiens (Human))",
    "Value Reported": 6.96
  }
]

A = Cc1ccnc(NC(=O)c2ccc3cc4n(c3n2)CCCNC4=O)c1
B = C[C@H]1CNC(=O)c2cc3ccc(C(=O)Nc4cnc5ccccc5c4)nc3n21
Just tell me: smaller pIC50 value, A or B ? Please reply using the label of the selected record. B

###

molecular target: Human RSK2 (Homo sapiens (Human), UniProt P51812)
Readout Name: IC50 (nM)

1 = C[C@H]1NC(=O)c2cc3ccc(C(=O)Nc4cnn(Cc5ccccc5)c4)nc3n2[C@H]1C (relative stereo) [Example 61]
2 = O=C(Nc1cccc(F)c1)c1ccc2nc3n(c2c1)CCCNC3=O [Example 8]
Pick one: 1 or 2 . Which has the bigger IC50 number? Pick one and reply with its label. 2
(2: 960 nM, 1: 0.34 nM)

###

Consider the following pIC50 values measured on Human RSK2 (Homo sapiens (Human)).
pIC50: −log10 of the molar value.
Readout Name: pIC50

[
  {
    "Compound": "Cc1cc(NC(=O)c2ccc3cc4n(c3n2)[C@@H](C)[C@@H](C)NC4=O)no1 (relative stereo)",
    "Readout Name": "pIC50",
    "Value Reported": 8.59
  },
  {
    "Compound": "C[C@H]1NC(=O)c2cc3ccc(C(=O)Nc4nc5ccccc5n4CCCN(C)C)nc3n2[C@H]1C (relative stereo)",
    "Readout Name": "pIC50",
    "Value Reported": 7.54
  },
  {
    "Compound": "Cn1cc(NC(=O)c2ccc3nc4n(c3c2)CCCNC4=O)cn1",
    "Readout Name": "pIC50",
    "Value Reported": 6.49
  },
  {
    "Compound": "O=C(Nc1cc(-c2ccccc2)no1)c1ccc2cc3n(c2n1)CCCNC3=O",
    "Readout Name": "pIC50",
    "Value Reported": 8.37
  },
  {
    "Compound": "C[C@H]1CNC(=O)c2cc3ccc(C(=O)Nc4cnn(Cc5ccccc5)c4)nc3n21",
    "Readout Name": "pIC50",
    "Value Reported": 7.92
  },
  {
    "Compound": "O=C(Nc1cnc2c(cnn2CC2CCOC2)c1)c1ccc2cc3n(c2n1)CCCNC3=O (stereo not shown)",
    "Readout Name": "pIC50",
    "Value Reported": 7.89
  }
]

A = O=C(Nc1cnc2c(cnn2C2CCOCC2)c1)c1ccc2cc3n(c2n1)CCCNC3=O
B = Cc1nc(-c2cccc(NC(=O)c3ccc4nc5n(c4c3)CCCNC5=O)c2)cs1
C = CN(C)CCCn1c(NC(=O)c2ccc3cc4n(c3n2)CCCNC4=O)nc2ccccc21
D = C[C@@H]1CNC(=O)c2cc3ccc(C(=O)Nc4cnc5ccccc5c4)nc3n21
E = Cn1cc(NC(=O)c2ccc3nc4n(c3c2)CCCNC4=O)nc1C(=O)NC1CCCC1
Rank order required: pIC50, descending. Quick reminder: the answer is the labels in the order asked. D, A, E, C, B

a = CC(C)(C)c1cc(NC(=O)c2ccc3cc4n(c3n2)CCCNC4=O)no1
b = CC(C)n1c(NC(=O)c2ccc3cc4n(c3n2)CC(C)(C)CNC4=O)nc2ccccc21
Which entry shows the lesser value of pIC50 here, a or b ? Please reply using the label of the selected record. b

P = Cc1cc(NC(=O)c2ccc3cc4n(c3n2)CCCNC4=O)no1
Q = Cc1cc(NC(=O)c2ccc3cc4n(c3n2)[C@H](C)CNC4=O)no1
Between P and Q , whose recorded pIC50 is greater? Write down the label attached to your selection. Q
(Q: 8.18, P: 7.72)

###

pIC50: −log10 of the molar value.
Entries with their measured pIC50, system UniProtKB P51812:
Readout Name: pIC50

[
  {
    "Compound": "Cn1c(NC(=O)c2ccc3cc4n(c3n2)CCCNC4=O)nc2ccccc21",
    "pIC50": 6.44
  },
  {
    "Compound": "CC1CCNC(=O)c2cc3ccc(C(=O)Nc4cnc5c(cnn5CC5CCOC5)c4)nc3n21 (stereo not shown)",
    "pIC50": 8.80
  },
  {
    "Compound": "CC(C)n1c(NC(=O)c2ccc3cc4n(c3n2)CCCNC4=O)nc2ccccc21",
    "pIC50": 6.20
  }
]

I = CC(C)n1ncc2cc(NC(=O)c3ccc4cc5n(c4n3)CC(C)(C)CNC5=O)cnc21
II = CCn1c(NC(=O)c2ccc3cc4n(c3n2)CC(C)(C)CNC4=O)nc2ccccc21
III = CC1CCNC(=O)c2cc3ccc(C(=O)Nc4cnc5c(cnn5C5CCOCC5)c4)nc3n21 (stereo not shown)
IV = CC1(C)CNC(=O)c2cc3ccc(C(=O)Nc4cc(Cc5ccccc5)on4)nc3n2C1
V = CCn1c(NC(=O)c2ccc3nc4n(c3c2)CCCNC4=O)nc2ccc(Cl)nc21
Place the items in sequence of falling pIC50. // ordering of labels required in reply III, V, I, II, IV
(III: 8.64, V: 7.35, I: 6.98, II: 6.71, IV: 6.44)

###

target: Human RSK2 (Homo sapiens (Human), UniProt P51812)
pIC50: −log10 of the molar value.
Readout Name: pIC50

P = CCn1c(NC(=O)c2ccc3cc4n(c3n2)CCCNC4=O)nc2ccccc21
Q = C[C@@H]1NC(=O)c2cc3ccc(C(=O)Nc4cnn(Cc5ccccc5)c4)nc3n2[C@H]1C (relative stereo)
Quick check, higher pIC50 between P and Q ? Refer to your chosen item by its label in the answer. Q
(Q: 8.52, P: 6.85)

A = CC1CNC(=O)c2cc3ccc(C(=O)Nc4cccnc4)nc3n21 (centres unmarked)
B = CC(C)n1c(NC(=O)c2ccc3nc4n(c3c2)CCCNC4=O)nc2ccccc21
Returns the identifier with the smallest measured pIC50 among A and B . Label of pick, please. A
